System: HT29 xenograft, nude mice, s.c., tumor weight T/C%
assay_details: NCI In Vivo Anticancer Drug Screen. Data for tumor model HT29;CX-1 Human Adenocarcinoma (MER+) (subcutaneous) in NU/NU Swiss (nude) mice
assay_setup: endpoint: optimum tumor weight change; dose: 25.0 mg/kg/injection; schedule: Q04DX003 (ip); vehicle: saline; higher = larger tumour
measured_property: T/C

Query: // lookup T/C for CNC(=O)ON(C(C)=O)C(=O)NC
Response: 52 % of control

Query: Bench note: what T/C did COc1cccc2c1C(=O)c1c(O)c3c(c(O)c1C2=O)C[C@@](O)(/C(C)=N\O)C[C@@H]3OC1CC(N)C(O)C(C)O1 (some centres undefined) show?
Response: 56 % of control

Query: T/C; subject: OCC1OC(n2cnc3cncnc32)C(O)C1O (centres undefined)
Response: 48 % of control

Query: Need T/C, item C=C(C)[C@H]1Cc2c(ccc3c2O[C@@H]2COc4cc(OC)c(OC)cc4[C@@H]2C3=O)O1
Response: 102 % of control
